tested on: Escherichia coli TOP10; assay: shrunken log2 fold change of peptide-encoding DNA abundance (4.5 h post-induction vs induction); higher = less antimicrobial activity (less host growth inhibition); conditions: time post-induction: 4.5 h; library: site-saturation at positions 5, 18, 19, 20
Lab note: compare shrunken log2 fold change against 0.2. Equal or greater, write True. Smaller, write False.

Ask | Could you please find out whether RRIRLRPPRLPRPRPRPHDTPRP has shrunken log2 fold change that meets 0.2 or exceeds it?
Reply | False

Ask | Could you please find out whether RRIRPRPPRLPRPRPRPGNDPRP has shrunken log2 fold change that meets 0.2 or exceeds it?
Reply | False

Ask | Could you please find out whether RRIRERPPRLPRPRPRPCMTPRP has shrunken log2 fold change that meets 0.2 or exceeds it?
Reply | False

Ask | Could you please find out whether RRIRERPPRLPRPRPRPYNMPRP has shrunken log2 fold change that meets 0.2 or exceeds it?
Reply | False

Ask | Could you please find out whether RRIRERPPRLPRPRPRPKQKPRP has shrunken log2 fold change that meets 0.2 or exceeds it?
Reply | False

Ask | Could you please find out whether RRIRFRPPRLPRPRPRPFRPPRP has shrunken log2 fold change that meets 0.2 or exceeds it?
Reply | False

Ask | Could you please find out whether RRIRARPPRLPRPRPRPRRGPRP has shrunken log2 fold change that meets 0.2 or exceeds it?
Reply | True

Ask | Could you please find out whether RRIRNRPPRLPRPRPRPSDMPRP has shrunken log2 fold change that meets 0.2 or exceeds it?
Reply | False

Ask | Could you please find out whether RRIRTRPPRLPRPRPRPMARPRP has shrunken log2 fold change that meets 0.2 or exceeds it?
Reply | False

Ask | Could you please find out whether RRIRMRPPRLPRPRPRPHLNPRP has shrunken log2 fold change that meets 0.2 or exceeds it?
Reply | False

Ask | Could you please find out whether RRIRGRPPRLPRPRPRPGQIPRP has shrunken log2 fold change that meets 0.2 or exceeds it?
Reply | True

Ask | Could you please find out whether RRIRGRPPRLPRPRPRPGPDPRP has shrunken log2 fold change that meets 0.2 or exceeds it?
Reply | True

Ask | Could you please find out whether RRIRLRPPRLPRPRPRPWGSPRP has shrunken log2 fold change that meets 0.2 or exceeds it?
Reply | False

Ask | Could you please find out whether RRIRWRPPRLPRPRPRPIMTPRP has shrunken log2 fold change that meets 0.2 or exceeds it?
Reply | False

Ask | Could you please find out whether RRIRERPPRLPRPRPRPLLGPRP has shrunken log2 fold change that meets 0.2 or exceeds it?
Reply | False

---

test system: Escherichia coli TOP10; assay: shrunken log2 fold change of peptide-encoding DNA abundance (4.5 h post-induction vs induction); higher = less antimicrobial activity (less host growth inhibition); conditions: time post-induction: 4.5 h; library: site-saturation at positions 5, 18, 19, 20;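 also: peptides expressed intracellularly from a pBAD plasmid library in pooled LB shake-flask culture, induced with 0.3% L-arabinose, DNA abundance read by NGS, three biological replicates, DESeq2 with apeglm shrinkage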
property: shrunken log2 fold change

Ask | Value wanted: shrunken log2 fold change (Escherichia coli TOP10) of entry RRIRRRPPRLPRPRPRPLIRPRP
Reply | -0.295

Ask | Value wanted: shrunken log2 fold change (Escherichia coli TOP10) of entry RRIRKRPPRLPRPRPRPRVVPRP
Reply | 0.143

Ask | Value wanted: shrunken log2 fold change (Escherichia coli TOP10) of entry RRIRLRPPRLPRPRPRPPCGPRP
Reply | 0.191

Ask | Value wanted: shrunken log2 fold change (Escherichia coli TOP10) of entry RRIRERPPRLPRPRPRPHICPRP
Reply | 0.0721

Ask | Value wanted: shrunken log2 fold change (Escherichia coli TOP10) of entry RRIRGRPPRLPRPRPRPDLYPRP
Reply | 0.574

Ask | Value wanted: shrunken log2 fold change (Escherichia coli TOP10) of entry RRIRNRPPRLPRPRPRPKHFPRP
Reply | 0.054

Ask | Value wanted: shrunken log2 fold change (Escherichia coli TOP10) of entry RRIRSRPPRLPRPRPRPFRYPRP
Reply | -0.822

Ask | Value wanted: shrunken log2 fold change (Escherichia coli TOP10) of entry RRIRDRPPRLPRPRPRPDGGPRP
Reply | -0.00182

Ask | Value wanted: shrunken log2 fold change (Escherichia coli TOP10) of entry RRIRDRPPRLPRPRPRPYIAPRP
Reply | -0.652

Ask | Value wanted: shrunken log2 fold change (Escherichia coli TOP10) of entry RRIRSRPPRLPRPRPRPTHTPRP
Reply | 0.106

Ask | Value wanted: shrunken log2 fold change (Escherichia coli TOP10) of entry RRIRYRPPRLPRPRPRPPFFPRP
Reply | -0.0804

Ask | Value wanted: shrunken log2 fold change (Escherichia coli TOP10) of entry RRIRQRPPRLPRPRPRPQPYPRP
Reply | -0.0274

Ask | Value wanted: shrunken log2 fold change (Escherichia coli TOP10) of entry RRIRMRPPRLPRPRPRPNVCPRP
Reply | -0.00865

Ask | Value wanted: shrunken log2 fold change (Escherichia coli TOP10) of entry RRIRSRPPRLPRPRPRPGPQPRP
Reply | 0.885

Ask | Value wanted: shrunken log2 fold change (Escherichia coli TOP10) of entry RRIRYRPPRLPRPRPRPVHGPRP
Reply | -0.014

Ask | Value wanted: shrunken log2 fold change (Escherichia coli TOP10) of entry RRIRGRPPRLPRPRPRPWQHPRP
Reply | -0.0318

Ask | Value wanted: shrunken log2 fold change (Escherichia coli TOP10) of entry RRIRRRPPRLPRPRPRPGSMPRP
Reply | -0.387

Ask | Value wanted: shrunken log2 fold change (Escherichia coli TOP10) of entry RRIRKRPPRLPRPRPRPLPHPRP
Reply | -0.0107

Ask | Value wanted: shrunken log2 fold change (Escherichia coli TOP10) of entry RRIRTRPPRLPRPRPRPNAHPRP
Reply | -0.102

Ask | Value wanted: shrunken log2 fold change (Escherichia coli TOP10) of entry RRIRNRPPRLPRPRPRPFWAPRP
Reply | 0.0267

Ask | Value wanted: shrunken log2 fold change (Escherichia coli TOP10) of entry RRIRERPPRLPRPRPRPDSKPRP
Reply | -0.312

Ask | Value wanted: shrunken log2 fold change (Escherichia coli TOP10) of entry RRIRLRPPRLPRPRPRPCPYPRP
Reply | 0.0232

Ask | Value wanted: shrunken log2 fold change (Escherichia coli TOP10) of entry RRIRNRPPRLPRPRPRPYWWPRP
Reply | 0.0224

Ask | Value wanted: shrunken log2 fold change (Escherichia coli TOP10) of entry RRIRWRPPRLPRPRPRPSCIPRP
Reply | -0.261

Ask | Value wanted: shrunken log2 fold change (Escherichia coli TOP10) of entry RRIRHRPPRLPRPRPRPLIAPRP
Reply | -0.261

Ask | Value wanted: shrunken log2 fold change (Escherichia coli TOP10) of entry RRIRWRPPRLPRPRPRPMMDPRP
Reply | 0.000475

Ask | Value wanted: shrunken log2 fold change (Escherichia coli TOP10) of entry RRIRWRPPRLPRPRPRPKPFPRP
Reply | 0.323

Ask | Value wanted: shrunken log2 fold change (Escherichia coli TOP10) of entry RRIRCRPPRLPRPRPRPGKHPRP
Reply | -0.423

Ask | Value wanted: shrunken log2 fold change (Escherichia coli TOP10) of entry RRIRRRPPRLPRPRPRPRLMPRP
Reply | 0.316

Ask | Value wanted: shrunken log2 fold change (Escherichia coli TOP10) of entry RRIRDRPPRLPRPRPRPRGHPRP
Reply | 0.321

Ask | Value wanted: shrunken log2 fold change (Escherichia coli TOP10) of entry RRIRTRPPRLPRPRPRPYWWPRP
Reply | -0.554

Ask | Value wanted: shrunken log2 fold change (Escherichia coli TOP10) of entry RRIRRRPPRLPRPRPRPFNQPRP
Reply | -0.0554
